Quick list: concentration at 1 h per entry.
assay: Plasma pharmacokinetics after single oral dose of Δ8-THCV in MCT oil (LC-MS/MS, non-compartmental analysis); assay type: in vivo, human; conditions: human, plasma, oral, 12.5 mg, 1 h; 12.5 mg Δ8-THCV dose; Mean (SD, %CV)
Answer format reminder: number followed by unit.

A selection of reference data follows.
compound	concentration at 1 h
CCCc1cc(O)c2c(c1)OC(C)(C)[C@@H]1CC=C(C(=O)O)C[C@@H]21	15 ng/mL
CCCc1cc(O)c2c(c1)OC(C)(C)[C@@H]1CCC(C(=O)O)=C[C@@H]21	0.1 ng/mL
CCCc1cc(O)c2c(c1)OC(C)(C)[C@@H]1CC=C(CO)C[C@@H]21 (racemic) [11-OH-Δ8-THCV, (±)-11-hydroxy-Δ8-THCV]	0 ng/mL
CCCc1cc(O)c2c(c1)OC(C)(C)[C@@H]1CCC(C)=C[C@@H]21 [Δ9-THCV, Δ9-tetrahydrocannabivarin]	0 ng/mL
CCCc1cc(O)c2c(c1)OC(C)(C)[C@@H]1CC=C(C)C[C@@H]21 [Δ8-THCV, Δ8-tetrahydrocannabivarin]	0.1 ng/mL

# input for lookup
Could you share which concentration at 1 h value was measured for CCCCCc1cc(O)c2c(c1)OC(C)(C)[C@@H]1CC=C(C(=O)O)CC21 (single isomer, unassigned; (+)) [Δ8-THC-COOH, (+)-11-nor-Δ8-THC-9-carboxylic acid] ?
0 ng/mL

* * *

assay: Plasma pharmacokinetics after single oral dose of Δ8-THCV in MCT oil (LC-MS/MS, non-compartmental analysis); format: in vivo, human; conditions: human, plasma, oral, 50 mg, 1 h; 50 mg Δ8-THCV dose; Median (IQ Range)
Quick list: concentration at 1 h per entry.
Entry rule: numbers only, all in ng/mL.

A selection of reference data follows.
molecule	reported result
CCCc1cc(O)c2c(c1)OC(C)(C)[C@@H]1CC=C(CO)C[C@@H]21 (racemic) [11-OH-Δ8-THCV, (±)-11-hydroxy-Δ8-THCV]	0
CCCc1cc(O)c2c(c1)OC(C)(C)[C@@H]1CCC(C)=C[C@@H]21 [Δ9-THCV, Δ9-tetrahydrocannabivarin]	0

Could you share which concentration at 1 h value was measured for CCCCCc1cc(O)c2c(c1)OC(C)(C)[C@@H]1CC=C(C(=O)O)CC21 (single isomer, unassigned; (+)) [Δ8-THC-COOH, (+)-11-nor-Δ8-THC-9-carboxylic acid] ?
0

* * *

Quick list: concentration at 0.5 h per entry.
assay: Plasma pharmacokinetics after single oral dose of Δ8-THCV in MCT oil (LC-MS/MS, non-compartmental analysis); type: in vivo, human; conditions: human, plasma, oral, 200 mg, 0.5 h; 200 mg Δ8-THCV dose; Mean (SD, %CV)
Entry rule: numbers only, all in ng/mL.

A selection of reference data follows.
compound	quantity kind	reported result
CCCc1cc(O)c2c(c1)OC(C)(C)[C@@H]1CC=C(CO)C[C@@H]21 (racemic) [11-OH-Δ8-THCV, (±)-11-hydroxy-Δ8-THCV]	concentration at 0.5 h	0
CCCCCc1cc(O)c2c(c1)OC(C)(C)[C@@H]1CC=C(C(=O)O)CC21 (single isomer, unassigned; (+)) [Δ8-THC-COOH, (+)-11-nor-Δ8-THC-9-carboxylic acid]	concentration at 0.5 h	0
CCCc1cc(O)c2c(c1)OC(C)(C)[C@@H]1CCC(C(=O)O)=C[C@@H]21 [Δ9-THCV-COOH, 11-nor-9-carboxy-Δ9-THCV]	concentration at 0.5 h	0.1
CCCc1cc(O)c2c(c1)OC(C)(C)[C@@H]1CCC(C)=C[C@@H]21 [Δ9-THCV, Δ9-tetrahydrocannabivarin]	concentration at 0.5 h	0
CCCc1cc(O)c2c(c1)OC(C)(C)[C@@H]1CC=C(C(=O)O)C[C@@H]21 [Δ8-THCV-COOH, 11-nor-9-carboxy-Δ8-THCV]	concentration at 0.5 h	5.6

Could you share which concentration at 0.5 h value was measured for CCCc1cc(O)c2c(c1)OC(C)(C)[C@@H]1CC=C(C)C[C@@H]21 [Δ8-THCV, Δ8-tetrahydrocannabivarin] ?
0.1

* * *

Quick list: concentration at 0.5 h per entry.
experiment: Plasma pharmacokinetics after single oral dose of Δ8-THCV in MCT oil (LC-MS/MS, non-compartmental analysis); type: in vivo, human; conditions: human, plasma, oral, 50 mg, 0.5 h; 50 mg Δ8-THCV dose; Mean (SD, %CV)

A selection of reference data follows.
compound	quantity kind	reported result
CCCc1cc(O)c2c(c1)OC(C)(C)[C@@H]1CCC(C(=O)O)=C[C@@H]21	concentration at 0.5 h	0 ng/mL
CCCc1cc(O)c2c(c1)OC(C)(C)[C@@H]1CC=C(C(=O)O)C[C@@H]21	concentration at 0.5 h	4.7 ng/mL
CCCc1cc(O)c2c(c1)OC(C)(C)[C@@H]1CC=C(C)C[C@@H]21 [Δ8-THCV, Δ8-tetrahydrocannabivarin]	concentration at 0.5 h	0.1 ng/mL
CCCc1cc(O)c2c(c1)OC(C)(C)[C@@H]1CC=C(CO)C[C@@H]21 (racemic) [11-OH-Δ8-THCV, (±)-11-hydroxy-Δ8-THCV]	concentration at 0.5 h	0 ng/mL

Could you share which concentration at 0.5 h value was measured for CCCc1cc(O)c2c(c1)OC(C)(C)[C@@H]1CCC(C)=C[C@@H]21 [Δ9-THCV, Δ9-tetrahydrocannabivarin] ?
0 ng/mL

Can you handle CCCCCc1cc(O)c2c(c1)OC(C)(C)[C@@H]1CC=C(C(=O)O)CC21 (single isomer, unassigned; (+)) [Δ8-THC-COOH, (+)-11-nor-Δ8-THC-9-carboxylic acid] next?
0 ng/mL

* * *

test: Plasma pharmacokinetics after single oral dose of Δ8-THCV in MCT oil (LC-MS/MS, non-compartmental analysis); type: in vivo, human; settings: human, plasma, oral, 100 mg, 0.5 h; 100 mg Δ8-THCV dose; Median (IQ Range)
Quick list: concentration at 0.5 h per entry.
Entry rule: numbers only, all in ng/mL.

compound	unit tag	reported result
CCCc1cc(O)c2c(c1)OC(C)(C)[C@@H]1CCC(C(=O)O)=C[C@@H]21	ng/mL	0

Could you share which concentration at 0.5 h value was measured for CCCCCc1cc(O)c2c(c1)OC(C)(C)[C@@H]1CC=C(C(=O)O)CC21 (single isomer, unassigned; (+)) [Δ8-THC-COOH, (+)-11-nor-Δ8-THC-9-carboxylic acid] ?
0

Can you handle CCCc1cc(O)c2c(c1)OC(C)(C)[C@@H]1CCC(C)=C[C@@H]21 [Δ9-THCV, Δ9-tetrahydrocannabivarin] next?
0

Can you handle `CCCc1cc(O)c2c(c1)OC(C)(C)[C@@H]1CC=C(C(=O)O)C[C@@H]21` next?
1.7

Can you handle CCCc1cc(O)c2c(c1)OC(C)(C)[C@@H]1CC=C(CO)C[C@@H]21 (racemic) [11-OH-Δ8-THCV, (±)-11-hydroxy-Δ8-THCV] next?
0

Can you handle CCCc1cc(O)c2c(c1)OC(C)(C)[C@@H]1CC=C(C)C[C@@H]21 [Δ8-THCV, Δ8-tetrahydrocannabivarin] next?
0

* * *

experiment: Plasma pharmacokinetics after single oral dose of Δ8-THCV in MCT oil (LC-MS/MS, non-compartmental analysis); format: in vivo, human; details: 200 mg single oral Δ8-THCV in MCT oil; plasma; Median (Range)
quantity kind: tlast (time to last quantifiable concentration)

molecule	reported result
CCCc1cc(O)c2c(c1)OC(C)(C)[C@@H]1CC=C(CO)C[C@@H]21 (racemic) [11-OH-Δ8-THCV, (±)-11-hydroxy-Δ8-THCV]	8 (8–8)
CCCCCc1cc(O)c2c(c1)OC(C)(C)[C@@H]1CC=C(C(=O)O)CC21 (single isomer, unassigned; (+)) [Δ8-THC-COOH, (+)-11-nor-Δ8-THC-9-carboxylic acid]	8 (4–8)
CCCc1cc(O)c2c(c1)OC(C)(C)[C@@H]1CCC(C)=C[C@@H]21 [Δ9-THCV, Δ9-tetrahydrocannabivarin]	6 (2–8)
CCCc1cc(O)c2c(c1)OC(C)(C)[C@@H]1CC=C(C)C[C@@H]21 [Δ8-THCV, Δ8-tetrahydrocannabivarin]	8 (8–8)
CCCc1cc(O)c2c(c1)OC(C)(C)[C@@H]1CCC(C(=O)O)=C[C@@H]21 [Δ9-THCV-COOH, 11-nor-9-carboxy-Δ9-THCV]	8 (8–8)

# input for lookup
Could you share which tlast (time to last quantifiable concentration) value was measured for CCCc1cc(O)c2c(c1)OC(C)(C)[C@@H]1CC=C(C(=O)O)C[C@@H]21 [Δ8-THCV-COOH, 11-nor-9-carboxy-Δ8-THCV] ?
8 (8–8)

* * *

experiment: Plasma pharmacokinetics after single oral dose of Δ8-THCV in MCT oil (LC-MS/MS, non-compartmental analysis); type: in vivo, human; parameters: unit not given here; conditions: 25 mg single oral Δ8-THCV in MCT oil; plasma; Median (Range)
quantity kind: Clast (last quantifiable concentration)

A selection of reference data follows.
> print(dat)
                                   compound  reported.result
1  CCCc1cc(O)c2c(c1)OC(C)(C)[C@@H]1CCC(C(=O)O)=C[C@@H]21    2.4 (1.3–4.4)
2  CCCc1cc(O)c2c(c1)OC(C)(C)[C@@H]1CC=C(C(=O)O)C[C@@H]21  78.3 (25.5–146)
3  CCCc1cc(O)c2c(c1)OC(C)(C)[C@@H]1CC=C(C)C[C@@H]21 [Δ8-THCV, Δ8-tetrahydrocannabivarin]      1 (0.5–1.8)

Could you share which Clast (last quantifiable concentration) value was measured for CCCc1cc(O)c2c(c1)OC(C)(C)[C@@H]1CC=C(CO)C[C@@H]21 (racemic) [11-OH-Δ8-THCV, (±)-11-hydroxy-Δ8-THCV] ?
0.8 (0.6–1)
